System: Kasumi-1 (KIT N822K)
Assay: In vitro growth inhibition of Kasumi-1 tumor cells (MTT/CCK8)
Assay type: cell-based, Human
Conditions: Homo sapiens, Kasumi 1; in vitro growth inhibition (or induction of apoptosis), cells cultured 3 to 5 days, MTT (CCK8); read-out: IC50 Kasumi-1 (KIT N822K)
observationType: IC50 (nM)
Your answer should be a plain number; it is taken to be in nM.

So what's the measured IC50 for this one? COc1cc2nccc(Oc3ccc(N(C)C(=O)Nc4cc(C(C)(C)C)on4)cc3)c2cc1C(N)=O 89.8

Same lookup for COCCNC(=O)c1cc2c(Oc3ccc(NC(=O)Nc4cc(C(C)(C)C)n[nH]4)c(Cl)c3)ccnc2cc1OC , please. 47.5

Further, for COc1cc2nccc(Oc3ccc(NC(=O)Nc4cc(C(C)(C)C)on4)c(C(F)(F)F)c3)c2cc1C(N)=O ? 14.5

And then COc1cc2nccc(Oc3ccc(NC(=O)Nc4cc(C(C)(C)C)on4)c(Br)c3)c2cc1C(N)=O , what is it? 27.8

What do you have for COc1cc2nccc(Oc3ccc(NC(=O)Nc4cc(C(C)(C)C)n[nH]4)cc3Cl)c2cc1C(N)=O ? 70.8

What would you report for COc1cc2nccc(Oc3ccc(NC(=O)Nc4cc(C(C)(C)C)nn4C)c(Cl)c3Cl)c2cc1C(N)=O ? 1.32

Please give the result for COc1cc2nccc(Oc3ccc(NC(=O)Nc4cc(C(C)(C)C)on4)c(Cl)c3)c2cc1NC(=O)C1CCCC1 too. 547

Please answer likewise for CCC(=O)n1nc(C(C)(C)C)cc1NC(=O)Nc1ccc(Oc2ccnc3cc(OC)c(C(N)=O)cc23)cc1Cl 66.8

Now this one: C=CC(=O)Nc1cc2c(Oc3ccc(NC(=O)Nc4cc(C(C)(C)C)n[nH]4)cc3Cl)ccnc2cc1OC 57.3

Likewise for CN1CCN(CCCOc2cc3nccc(Oc4ccc(NC(=O)Nc5cc(C(C)(C)C)n[nH]5)c(Cl)c4Cl)c3cc2C(N)=O)CC1 ? 1.34

Similarly, CNC(=O)c1cc2c(Oc3ccc(NC(=O)Nc4cc(C(C)(C)C)nn4C)c(Cl)c3Cl)ccnc2cc1OCCOC ? 0.493

And for CNC(=O)c1cc2c(Oc3ccc(NC(=O)Nc4cc(C(C)(C)C)n[nH]4)c(C(F)(F)F)c3)ccnc2cc1OC ? 12.7
